Hey, just so you know, these numbers are from PubChem BioAssay AID2685.

Attribute: cell number change
assay: qHTS Assay for Lipid Storage Modulators in Drosophila S3 Cells; details: BODIPY lipid droplet fluorescence, 18-24 h, cells fed with added oleic acid; measured here: cell count max response;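 further: cells counted by Cell Tracker Red CMTPX staining in the red channel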
About 2,100 (0.66%) of roughly 320,000 compounds were called active. About 53% were inconclusive and are not listed. The full list was thinned out, with actives kept by preference.

{"COMPOUND": "COCCN1CN=C(Nc2nc(C)c3ccc(C)cc3n2)NC1", "cell number change, %": 3.94}
{"COMPOUND": "COC(=O)c1sc(N)c(C(=O)OC)c1COC(=O)C12CC3CC(CC(O)(C3)C1)C2", "cell number change, %": -15.1}
{"COMPOUND": "CCN1CCCC1CNCc1ccc(Cl)cc1Cl (configuration not stated)", "cell number change, %": -167}
{"COMPOUND": "Cn1cnnc1SCCNS(=O)(=O)c1cccc([N+](=O)[O-])c1", "cell number change, %": 3.23}
{"COMPOUND": "Cc1nn2c(=O)cc(COC(=O)c3ccc(NC(=O)C(C)(C)C)cc3)nc2s1", "cell number change, %": 7.59}
{"COMPOUND": "COC(=O)c1c(NC(=O)c2ccco2)sc2c1CCN(C(C)=O)C2", "cell number change, %": -25.8}
{"COMPOUND": "COc1cccc(C2NC(=O)NC(C)=C2C(=O)Nc2cc(OC)ccc2OC)c1 (configuration not stated)", "cell number change, %": 10.2}
{"COMPOUND": "Cn1nc(C(=O)NNC(=O)C(CCC(N)=O)NS(=O)(=O)c2ccc(Cl)cc2)c2ccccc2c1=O (configuration not stated)", "cell number change, %": 15.9}
{"COMPOUND": "COc1ccc(C(C)=O)cc1CSc1nnc(SCc2cc(C(C)=O)ccc2OC)s1", "cell number change, %": 7.73}
{"COMPOUND": "COc1ccc(-c2ccc3ccccc3n2)cc1", "cell number change, %": -4.92}
{"COMPOUND": "CN(C(=O)CCn1c(=S)oc2ccccc21)c1ccc(F)cc1", "cell number change, %": 7.52}
{"COMPOUND": "Cc1ccccc1C(=O)NNC(=O)c1ccoc1C", "cell number change, %": 21.8}
{"COMPOUND": "O=C(CN1CCc2ccccc21)NC(=O)NCc1ccco1", "cell number change, %": 0.297}
{"COMPOUND": "CCOc1cc(/C=C2\\COc3ccccc3C2=O)ccc1OCC(=O)N(C)C", "cell number change, %": -5.65}
{"COMPOUND": "COc1ccc(-c2noc(C3CCCN(C(=O)c4ccc(C)cc4)C3)n2)cc1 (configuration not stated)", "cell number change, %": 10.5}
{"COMPOUND": "COC(=O)C1=C(C)NC(=O)/C1=C\\c1ccc2c(c1)OCO2", "cell number change, %": -20.5}
{"COMPOUND": "O=C(/C=C/c1cccs1)c1cc(Cl)ccc1O", "cell number change, %": 3.94}
{"COMPOUND": "Cc1cc(C)c2[nH]c(=O)c(CN(C(=O)C3CCCO3)C3CCCC3)cc2c1 (configuration not stated)", "cell number change, %": 9.83}
{"COMPOUND": "CCCCn1c(SCC(=O)NCc2ccco2)nnc1-c1ccco1", "cell number change, %": -17}
{"COMPOUND": "Cc1nonc1C(=O)N/N=C/c1cc2c(cc1Br)OCO2", "cell number change, %": 13}
{"COMPOUND": "O=C(Nc1nnc(C2=COCCO2)o1)c1ccc(S(=O)(=O)N2CCOCC2)cc1", "cell number change, %": 17.2}
{"COMPOUND": "O=C(Nc1ccccc1)C1C(c2ccccc2)C1(Cl)Cl (configuration not stated)", "cell number change, %": -2.33}
{"COMPOUND": "Cc1ccc(-n2c3c(c(=O)[nH]c2=O)C(NS(=O)(=O)c2ccc(C)cc2)(C(F)(F)F)C(=O)N3)cc1 (configuration not stated)", "cell number change, %": -0.886}
{"COMPOUND": "COc1ccccc1NS(=O)(=O)c1ccc(C(=O)NCC(c2ccco2)N(C)C)cc1 (configuration not stated)", "cell number change, %": -9.2}
{"COMPOUND": "Cn1c(SCC(=O)NCc2ccco2)nnc1-c1ccccc1", "cell number change, %": -3.55}
{"COMPOUND": "CSc1ccc(-c2nc(CSCC(=O)NCCCN3CCOCC3)c(C)o2)cc1", "cell number change, %": -0.666}
{"COMPOUND": "Cc1cc(S(=O)(=O)N2CCN(CC(=O)NCCc3cccs3)CC2)ccc1Br", "cell number change, %": -0.491}
{"COMPOUND": "CCOc1ccc(NC(=O)C2C(c3ccccc3)C2(Cl)Cl)cc1 (configuration not stated)", "cell number change, %": -15.7}
{"COMPOUND": "COC(=O)NNC(=O)c1ccccc1C", "cell number change, %": -4.05}
{"COMPOUND": "CN(Cc1cnn(C)c1)C(=O)c1cc(COc2c(F)cccc2F)on1", "cell number change, %": 16.3}
{"COMPOUND": "O=C(CN1CCN(S(=O)(=O)c2ccccc2)CC1)NCCc1ccccc1", "cell number change, %": 12.2}
{"COMPOUND": "COC(=O)c1cc(OC)c(OC)cc1NC(=S)N1CCN(c2ccccn2)CC1", "cell number change, %": -13.1}
